# test-name: Quantitative High-Throughput drug screen in 47 multiple myeloma cell lines against the NCATS MIPE library collection: UTMC2_PLB cell viability assay (AID 1919868); further: nearly all actives have a fitted effect of over 55% in size
# conditions: CellTiter-Glo ATP luminescence, 48 h
Records with an inconclusive call do not appear. Active and inactive are the calls of the source. The call rests on the fitted dose curve; in most records, active means well fitted cell-killing curve with a large enough effect; inconclusive means small, poorly fitted or top-dose-only effect, or effect the other way; inactive means no such curve, though single readings can be large or run the other way. Residues, ends and D or L forms follow the SMILES beside them. *: point of attachment. Cbz = O=C(OCc1ccccc1)*
Outcomes: 1 for active, -1 for inactive

molecule	class-assignment
CCC(C(=O)O)C1CCC(C)C(C(C)C(O)C(C)C(=O)C(CC)C2OC3(C=CC(O)[C@@]4(CC[C@](C)(C5CC[C@@](O)(CC)C(C)O5)O4)O3)C(C)CC2C)O1 (stereo partly specified)	1
C[C@H](NC(=O)C(C#N)=Cc1cccc(Br)n1)c1ccccc1	1
CC(C)(O)[C@H]1CC[C@@](C)([C@H]2[C@@H](O)C[C@@]3(C)[C@@H]4C[C@H](O[C@@H]5O[C@H](CO)[C@@H](O)[C@H](O)[C@@H]5O)[C@H]5C(C)(C)[C@@H](O[C@@H]6OC[C@@H](O)[C@H](O)[C@@H]6O)CC[C@@]56C[C@@]46CC[C@]23C)O1	-1
C#C[C@]1(O)CC[C@@H]2[C@@H]3CCC4=CC(=O)CC[C@@H]4[C@H]3CC[C@@]21CC	-1
C[C@H](CCC(=O)O)[C@H]1CCC2C3C[C@H](O)[C@@H]4C[C@H](O)CC[C@]4(C)C3CC[C@@]21C (stereo partly specified)	-1
C[C@H]1[C@@H](OC(=O)CCC(=O)O)O[C@@H]2O[C@@]3(C)CC[C@@H]4[C@H](C)CC[C@@H]1[C@@]24OO3	1
COC(=O)C=CC(=O)OC	1
CN1CCCN(C(=O)c2cccc(-c3ccc(C=C4C(=O)Nc5ccc(Cl)cc54)o3)c2)CC1	1
C=C(C)[C@@H]1CC[C@]2(C)CC[C@]3(C)[C@H](CC[C@@H]4[C@@]5(C)CC[C@H](O)C(C)(C)[C@H]5CC[C@]43C)[C@@H]12	-1
O=S(=O)(O)CCSSCCS(=O)(=O)O	-1
COC1=C2C[C@@H](C)C[C@H](OC)[C@@H](O)[C@@H](C)C=C(C)[C@H](OC(N)=O)[C@@H](OC)C=CC=C(C)C(=O)NC(=CC1=O)C2=O	1
Nc1cccc2c1C(=O)N(C1CCC(=O)NC1=O)C2=O (stereo unspecified)	-1
Cc1cnc(Nc2ccc(CN3CCOCC3)cc2)nc1Nc1cccc(S(=O)(=O)NC(C)(C)C)c1	1
O=c1[nH]c(=O)n([C@H]2C[C@@H](O)[C@@H](CO)O2)cc1F	1
CS(=O)(=O)N1CCc2c(-c3cnc(N)nc3)nc(N3CCOCC3)nc21	1
CC(=O)[C@]1(O)Cc2c(O)c3c(c(O)c2[C@@H](O[C@H]2C[C@H](N)[C@@H](O)[C@H](C)O2)C1)C(=O)c1ccccc1C3=O	1
Cc1[nH]c(C=C2C(=O)Nc3ccccc32)c(C)c1CCC(=O)O	1
c1ccc(CNc2nc(NCc3ccccc3)c3ccccc3n2)cc1	1
CCCNS(=O)(=O)Nc1ncnc(OCCOc2ncc(Br)cn2)c1-c1ccc(Br)cc1	-1
CCN(CC)Cc1ccc2cc(COC(=O)Nc3ccc(C(=O)NO)cc3)ccc2c1	1
CCOC(=O)N1CCN([N+]([O-])=NOc2ccc([N+](=O)[O-])cc2C#N)CC1	1
O=C(O)[C@H](CC(=O)N1C[C@@H]2CCCC[C@H]2C1)Cc1ccccc1	-1
CC(C)NC[C@@H](C(=O)N1CCN(c2ncnc3c2[C@H](C)C[C@H]3O)CC1)c1ccc(Cl)cc1	1
CC(C)C[C@@H](C=O)NC(=O)[C@H](CC(C)C)NC(=O)[C@H](CC(C)C)NC(=O)OCc1ccccc1 (Cbz-Leu-Leu-Leu-aldehyde)	1
CCCCCCCCc1ccc(CCC(N)(CO)CO)cc1	1
CC(=O)C1=C(O)C=C2Oc3c(C(C)=O)c(O)c(C)c(O)c3C2(C)C1=O (stereo unspecified)	-1
Cc1cn([C@@H]2O[C@H](CO)[C@@H](O)[C@H]2F)c(=O)[nH]c1=O	-1
O=C(C[C@@H]1CC=CCCC(=O)O[C@H](c2ccccc2)CNC1=O)NCc1ccc(Cl)cc1	-1
N#CNC(=NCCCCCCOc1ccc(Cl)cc1)Nc1ccncc1	-1
CCc1nc(-c2cccc(C)c2)c(-c2ccnc(NC(=O)c3ccccc3)c2)s1	1
CC(C)(C)c1nc2c3cc[nH]c(=O)c3c3cc(F)ccc3c2[nH]1	1
Cn1cc(-c2cnn3c(N)c(Br)c([C@H]4CCCNC4)nc23)cn1	1
CC(C(C)N1CC(=O)NC(=O)C1)N1CC(=O)NC(=O)C1 (stereo unspecified)	1
Nc1nc(N)c2nc(-c3cccc(O)c3)c(-c3cccc(O)c3)nc2n1	1
NC(=O)c1ncn([C@@H]2O[C@H](CO)[C@@H](O)[C@@H]2O)c1O	-1
COc1cc(C=CC(=O)CC(=O)C=Cc2ccc(O)c(OC)c2)ccc1O	1

* * *

# test-name: qHTS of pediatric cancer cell lines to identify multiple opportunities for drug repurposing: Primary screen for control Hh wild type fibroblast cells (AID 1347106);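 further: a drop in luminescence marks cytotoxicity and a rise apparent proliferation; nearly all actives have a fitted effect of over 55% in size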
# conditions: Hh wild-type fibroblast viability, CellTiter-Glo luminescence, 48 h; series mostly up to 46 µM
Results filed as inconclusive are left out. Active and inactive are the calls of the source. The call rests on the fitted dose curve; in most records, active means well fitted cell-killing curve with a large enough effect; inconclusive means small, poorly fitted or top-dose-only effect; inactive means flat fitted curve, though single readings scatter. Positions of bridges follow the written chain, without caps; N, C: chain ends. Non-standard residues stand in square brackets, D forms with d. Residues, ends and D or L forms follow the SMILES beside them. ξ: configuration not given here. *: point of attachment. Octanoyl(6-Me) = CCC(C)CCCCC(=O)*; ξThr(3R) = C[C@@H](O)C(N)C(=O)O; dDab = NCC[C@@H](N)C(=O)O; Dab = NCC[C@H](N)C(=O)O
experimental-endpoint: outcome

compound	experimental-endpoint	test-value
CCC(C)CCCCC(=O)N[C@@H](CCN)C(=O)NC(C(=O)N[C@H](CCN)C(=O)N[C@@H]1CCNC(=O)C([C@@H](C)O)NC(=O)[C@@H](CCN)NC(=O)[C@@H](CCN)NC(=O)[C@@H](CC(C)C)NC(=O)[C@H](Cc2ccccc2)NC(=O)[C@H](CCN)NC1=O)[C@@H](C)O (stereo partly drawn) ({Octanoyl(6-Me)}-[Dab][ξThr(3R)][dDab][dDab][Dab]F[dL][dDab][dDab][ξThr(3R)]; lactam 4-C)	outcome	inactive
CC(C)Oc1ccc(C(=O)N[C@H](CNC(=O)CN(C)C)Cc2ccc(-c3cn4cccc([C@H](C)O)c4n3)cc2)cc1Cl	outcome	inactive
O=C(O)C=Cc1ccc(Cn2ccnc2)cc1	outcome	inactive

* * *

# test-name: Quantitative High-Throughput drug screen in 47 multiple myeloma cell lines against the NCATS MIPE library collection: MM1R_ATCC cell viability assay (AID 1918981); further: nearly all actives have a fitted effect of over 35% in size
# conditions: MM1R multiple myeloma cells, CellTiter-Glo viability, 48 h; series mostly up to 45.8 µM
Inconclusive results are not listed. Activity calls are given as the source filed them. The call rests on the fitted dose curve; in most records, active means well fitted cell-killing curve with a large enough effect; inconclusive means small, poorly fitted or top-dose-only effect, or effect the other way; inactive means no such curve, though single readings can be large or run the other way.
Classes used: active, inactive

molecule	class-assignment
Cc1cc(Nc2ncc3c(n2)N(C)C(=O)N(c2cc(NC(=O)c4cccc(C(F)(F)F)c4)ccc2C)C3)n(C)n1	active
N#CC(=C(N)Sc1ccc(N)cc1)c1ccccc1C(F)(F)F	active
COc1ccc(C=Cc2cc(OC)c(OC)c(OC)c2)cc1NC(=O)[C@H](N)CO	active
Cc1cnc(Nc2ccc(N3CCN(C)CC3)cc2)nc1Nc1cccc(S(=O)(=O)NC(C)(C)C)c1	active
CN(C)CC(=O)N1CCC(c2ccc(NC(=O)c3ncc(C#N)[nH]3)c(C3=CCCCC3)c2)CC1	active
O=C(C[C@@H]1CC=CCCC(=O)O[C@H](c2ccccc2)CNC1=O)NCc1ccc(Cl)cc1	inactive
CN[C@H](CC(C)C)C(=O)N[C@H]1C(=O)N[C@@H](CC(N)=O)C(=O)N[C@@H]2C(=O)N[C@H]3C(=O)N[C@H](C(=O)N[C@H](C(=O)O)c4cc(O)cc(O)c4-c4cc3ccc4O)[C@H](O)c3ccc(c(Cl)c3)Oc3cc2cc(c3O[C@@H]2O[C@H](CO)[C@@H](O)[C@H](O)[C@@H]2O[C@H]2C[C@](C)(N)[C@H](O)[C@H](C)O2)Oc2ccc(cc2Cl)[C@H]1O	inactive
CC(C)(O)[C@H]1CC[C@@](C)([C@H]2[C@@H](O)C[C@@]3(C)[C@@H]4C[C@H](O[C@@H]5O[C@H](CO)[C@@H](O)[C@H](O)[C@@H]5O)[C@H]5C(C)(C)[C@@H](O[C@@H]6OC[C@@H](O)[C@H](O)[C@@H]6O)CC[C@@]56C[C@@]46CC[C@]23C)O1	inactive
Cc1coc2c1C(=O)C(=O)c1c-2ccc2c(C)cccc12	active
C[C@H](NC(=O)C(C#N)=Cc1cccc(Br)n1)c1ccccc1	active
CN(C)c1ccc2cc(C(=O)N[C@@H](CCCN=C(N)CCl)C(=O)NCc3ccccc3)ccc2c1	active
CC(=O)OC[C@@H]1O[C@@H](n2ccc(=O)[nH]c2=O)[C@H](OC(C)=O)[C@H]1OC(C)=O	inactive
OCCNC1CCCc2c1[nH]c1ccc(-c3ccccc3)cc21 (stereo not given)	active
CC(O)(C#Cc1ccc2c(c1)N(c1nc(N)ncc1Cl)CC2)c1nccs1 (stereo not given)	active
O=C(NCc1ccccc1)[C@H](Cc1ccccc1)NC(=O)[C@@H]1O[C@@H]1C(=O)NCCc1ccc(O)cc1	active
